Tested on: Plasmodium falciparum Sir2 (PF13_0152, Sir2A)
Test method notes: pfSir2 binders on small-molecule microarrays, primary screen, biochemical, small-molecule microarray, 635 nm fluorescence (AID 1098);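 note: score merges spot fluorescence intensity with its signal-to-noise ratio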
Reported conditions: small-molecule microarray binding, fluorescence 635 nm; higher = more signal
Test readout: composite z-score
Lab note: jot down the number only; don't add units.

{"Compound": "COC(=O)C(CC#Cc1ccc2c(c1)[C@]1(C(=O)N2)[C@H](c2ccc(O)cc2)N2[C@H](c3ccccc3)[C@H](c3ccccc3)OC(=O)[C@H]2[C@@H]1C(=O)Nc1nc2ccccc2s1)C(=O)OC", "Assay target": "Plasmodium falciparum Sir2 (PF13_0152, Sir2A)", "composite z-score": 1.59}
{"Compound": "COC(=O)[C@@]1(Cc2ccccc2)[C@H]2c3cc(C(=O)N(C)C)n(CCSCCO)c3C[C@H]2CN1C(=O)c1ccccc1", "Assay target": "Plasmodium falciparum Sir2 (PF13_0152, Sir2A)", "composite z-score": 0.751}
{"Compound": "CCCCN1CC=CC23O[C@@H]4C=CCOC(=O)[C@@H]4[C@H]2C(=O)N(CCCCCO)[C@@H]3C1=O (some centres not stated)", "Assay target": "Plasmodium falciparum Sir2 (PF13_0152, Sir2A)", "composite z-score": 1.15}
{"Compound": "COC(=O)[C@@]1(Cc2ccccc2)[C@H]2c3cc(C(=O)N4CCCC4)n(CC4CC4)c3C[C@H]2CN1C(=O)c1ccccc1", "Assay target": "Plasmodium falciparum Sir2 (PF13_0152, Sir2A)", "composite z-score": 1.23}
{"Compound": "C=CCOC(=O)[C@H]1[C@@H]2C(=O)O[C@@H](c3ccccc3)[C@@H](c3ccccc3)N2[C@@H](c2ccc(OCCOC(=O)[C@H]3C[C@H]4C(=O)N[C@@H](CC(C)C)C(=O)N4[C@H]3c3ccc(O)cc3)cc2)[C@]12C(=O)Nc1ccc(I)cc12", "Assay target": "Plasmodium falciparum Sir2 (PF13_0152, Sir2A)", "composite z-score": 1.5}

// field: composite z-score; key: O=C1OCCC=C[C@H]2OC34C=CCN(CCN5CCOCC5)C(=O)[C@H]3N(CCCCCCO)C(=O)[C@@H]4C12 (some centres not stated) ; value = 0.813

// field: composite z-score; key: `COCCOC(=O)N1C(=O)[C@@]2(c3cc(C#CC4=CCCCC4)ccc31)[C@H](c1ccc(O)cc1)N1[C@H](c3ccccc3)[C@H](c3ccccc3)OC(=O)[C@H]1[C@@H]2C(N)=O` ; value = 1.03

// field: composite z-score; key: C=CCN(Cc1ccccc1)C(=O)C(c1cccs1)N(CCOCCO)C(=O)/C=C\C(=O)O (configuration not stated) ; value = 0.342

// field: composite z-score; key: `COCCOC(=O)N1C(=O)[C@@]2(c3cc(C#CCCO)ccc31)[C@H](c1ccc(OCCO)cc1)N1[C@H](c3ccccc3)[C@H](c3ccccc3)OC(=O)[C@H]1[C@@H]2C(=O)N1CCN(c2ncccn2)CC1` ; value = 0.732

// field: composite z-score; key: `CN(C)CCCNC(=O)[C@@]1(C)c2ccccc2C(=O)N(Cc2cc(F)cc(C(F)(F)F)c2)[C@H]1c1ccc(CO)cc1` ; value = 1.34

// field: composite z-score; key: CN1C(=O)C2C=CC(C(O)Cc3ccccc3)N(Nc3ccccc3)C2C1=O (configuration not stated) ; value = 0.36

// field: composite z-score; key: `COC(=O)[C@@]1(Cc2ccc(F)cc2)[C@H]2c3cc(C(=O)N(C)C)n(CC4CC4)c3C[C@H]2CN1C(=O)c1ccccc1` ; value = -0.0199

// field: composite z-score; key: CN1C(=O)C2C=CC(C(O)c3ccc(-c4ccccc4)s3)N(N(c3ccccc3)c3ccccc3)C2C1=O (configuration not stated) ; value = 0.61

// field: composite z-score; key: `[N-]=[N+]=NCc1ccccc1C[C@]1(C(=O)O)N=C(c2ccc(OCCCO)cc2)O[C@H]1c1ccccc1N=[N+]=[N-]` ; value = 1.17

// field: composite z-score; key: `C=C/C=C/[C@H]1C(=C)CN([C@@H](Cc2ccccc2)C(=O)OC)[C@@H]1[C@H](O)Cc1ccccc1` ; value = -0.181

// field: composite z-score; key: `C=CCNC(=O)[C@@H]1[C@H]2C(=O)O[C@H](c3ccccc3)[C@H](c3ccccc3)N2[C@H](c2ccc(OCCO)cc2)[C@@]12C(=O)Nc1ccc(C#Cc3ccc(OC)cc3)cc12` ; value = 1.28

// field: composite z-score; key: O=C1OCCC/C=C\[C@H]2OC34C=CCN(CCN5CCOCC5)C(=O)[C@H]3N(CCCO)C(=O)[C@@H]4C12 (some centres not stated) ; value = 1.37

// field: composite z-score; key: `CC[C@@H]1C=C(C(=O)O)[C@H](c2ccco2)N1S(=O)(=O)c1ccc(C)cc1` ; value = 1.37

// field: composite z-score; key: COc1ccc(NN2C(C(O)c3ccc([N+](=O)[O-])cc3)C=CC3C(=O)N(C4CCCCC4)C(=O)C32)cc1 (configuration not stated) ; value = 0.562

// field: composite z-score; key: COc1cc2c(cc1O)C(C1CC1)N(Cc1cc3c(cc1Br)OCO3)CC2 (configuration not stated) ; value = 0.802

// field: composite z-score; key: CN1C(=O)C2C=CC(C(O)c3ccccc3)N(Nc3ccccc3)C2C1=O (configuration not stated) ; value = 1.54

// field: composite z-score; key: `C=CC[C@@]1(C(N)=O)N=C(c2ccc(OCCCO)cc2)O[C@@H]1c1ccccc1CN=[N+]=[N-]` ; value = 1.02

// field: composite z-score; key: `COCCOC(=O)N1C(=O)[C@@]2(c3ccccc31)[C@H](c1ccccc1OCCO)N1[C@H](c3ccccc3)[C@H](c3ccccc3)OC(=O)[C@H]1[C@@H]2C(=O)Nc1nc2ccccc2s1` ; value = 1.4

// field: composite z-score; key: `C=CCOC(=O)[C@@H]1[C@H]2C(=O)O[C@H](c3ccccc3)[C@H](c3ccccc3)N2[C@H](c2ccc(OCCOC(=O)[C@@H]3C[C@@H]4C(=O)N[C@@H](CCCC[N+](C)(C)C)C(=O)N4[C@@H]3c3cccc(OCCO)c3)cc2)[C@@]12C(=O)Nc1ccc(I)cc12` ; value = 1.09

// field: composite z-score; key: `CCCN1C(=O)[C@]2(CCS(=O)(=O)c3ccccc3)N=C(c3ccc(OCCCO)cc3)O[C@@H]2c2ccccc21` ; value = 1.19

// field: composite z-score; key: `[N-]=[N+]=NCc1ccccc1C[C@]1(C(=O)N2CCOCC2)N=C(c2ccc(OCCCO)cc2)O[C@H]1c1ccccc1N=[N+]=[N-]` ; value = 1

// field: composite z-score; key: `C#CCN(CC1=CCCCC1)[C@H](c1ccccc1Br)[C@@H](O)Cc1ccccc1` ; value = 1.53

* * *

The following compounds are listed with their measured composite z-score values.
Assay target: Follistatin-related protein 3 (Homo sapiens) (UniProt O95633)
Sequence (O95633 whole entry, looked up): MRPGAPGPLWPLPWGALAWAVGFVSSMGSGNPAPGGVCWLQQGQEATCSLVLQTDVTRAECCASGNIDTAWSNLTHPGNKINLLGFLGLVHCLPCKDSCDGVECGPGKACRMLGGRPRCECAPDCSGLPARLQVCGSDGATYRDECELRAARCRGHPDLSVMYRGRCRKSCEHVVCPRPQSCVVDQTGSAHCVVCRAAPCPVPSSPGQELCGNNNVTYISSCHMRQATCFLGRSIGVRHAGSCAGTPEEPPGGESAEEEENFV
Test method notes: FSTL3 binders on small-molecule microarrays, primary screen, biochemical, small-molecule microarray, 635 nm fluorescence (AID 1105);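 note: score merges emission near 667 nm and signal to noise per printed spot across three slides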
Reported conditions: FSTL3 binding, higher = more signal
Lab note: jot down the number only; don't add units.

Before answering, review these 4 worked examples.
{"Compound": "COC(=O)[C@@]1(Cc2ccc(OC)cc2)[C@H]2c3cc(C(=O)N4CCCC4)n(Cc4ccccc4)c3C[C@H]2CN1C(=O)c1ccccc1", "composite z-score": 0.413}
{"Compound": "C=CC[C@@]1(C(=O)N(C)C)N=C(c2ccc(OCCCO)cc2)O[C@@H]1c1ccccc1N=[N+]=[N-]", "composite z-score": 0.884}
{"Compound": "COCCOC(=O)N1C(=O)[C@@]2(c3cc(C#Cc4ccc(OC)cc4)ccc31)[C@H](C(N)=O)[C@H]1C(=O)O[C@H](c3ccccc3)[C@H](c3ccccc3)N1[C@@H]2c1ccccc1OCCO", "composite z-score": 0.93}
{"Compound": "CCCCCN1CC=CC23O[C@@H]4/C=C\\CCCOC(=O)C4[C@H]2C(=O)N(C(CO)C(C)C)[C@@H]3C1=O (some centres undefined)", "composite z-score": -0.188}

// field: composite z-score; key: `C=C[C@H](COC(C)=O)N(C(=O)OC(C)(C)C)S(=O)(=O)c1ccc(Br)cc1` ; value = 0.507

// field: composite z-score; key: `CCCC[C@@H]1C[C@H]1[C@@H](NC(=O)c1ccco1)c1ccc(Cl)cc1` ; value = 0.0636

// field: composite z-score; key: `CC(C)(C)OC(=O)CC[C@]1(C(=O)O)N=C(c2ccc(OCCCO)cc2)O[C@H]1c1ccccc1N=[N+]=[N-]` ; value = 0.4

// field: composite z-score; key: `CO[C@H]1O[C@H](CO)[C@@H](OC(=O)Nc2ccc(Br)cc2)[C@H](OC(=O)c2cc3ccccc3[nH]2)[C@H]1OC(=O)c1cc2ccccc2[nH]1` ; value = 0.579

// field: composite z-score; key: `COCCOC(=O)N1C(=O)[C@@]2(c3cc(C#CC4=CCCCC4)ccc31)[C@H](C(=O)Nc1nc3ccccc3s1)[C@H]1C(=O)O[C@H](c3ccccc3)[C@H](c3ccccc3)N1[C@@H]2c1ccccc1OCCO` ; value = 1.41
